- system tested: human mGluR5a receptor (Homo sapiens)
- Construct: cDNA subcloned into pcDNA3.1(-)
- Sequence (P41594 21-1180 isoform P41594-2 limits assumed): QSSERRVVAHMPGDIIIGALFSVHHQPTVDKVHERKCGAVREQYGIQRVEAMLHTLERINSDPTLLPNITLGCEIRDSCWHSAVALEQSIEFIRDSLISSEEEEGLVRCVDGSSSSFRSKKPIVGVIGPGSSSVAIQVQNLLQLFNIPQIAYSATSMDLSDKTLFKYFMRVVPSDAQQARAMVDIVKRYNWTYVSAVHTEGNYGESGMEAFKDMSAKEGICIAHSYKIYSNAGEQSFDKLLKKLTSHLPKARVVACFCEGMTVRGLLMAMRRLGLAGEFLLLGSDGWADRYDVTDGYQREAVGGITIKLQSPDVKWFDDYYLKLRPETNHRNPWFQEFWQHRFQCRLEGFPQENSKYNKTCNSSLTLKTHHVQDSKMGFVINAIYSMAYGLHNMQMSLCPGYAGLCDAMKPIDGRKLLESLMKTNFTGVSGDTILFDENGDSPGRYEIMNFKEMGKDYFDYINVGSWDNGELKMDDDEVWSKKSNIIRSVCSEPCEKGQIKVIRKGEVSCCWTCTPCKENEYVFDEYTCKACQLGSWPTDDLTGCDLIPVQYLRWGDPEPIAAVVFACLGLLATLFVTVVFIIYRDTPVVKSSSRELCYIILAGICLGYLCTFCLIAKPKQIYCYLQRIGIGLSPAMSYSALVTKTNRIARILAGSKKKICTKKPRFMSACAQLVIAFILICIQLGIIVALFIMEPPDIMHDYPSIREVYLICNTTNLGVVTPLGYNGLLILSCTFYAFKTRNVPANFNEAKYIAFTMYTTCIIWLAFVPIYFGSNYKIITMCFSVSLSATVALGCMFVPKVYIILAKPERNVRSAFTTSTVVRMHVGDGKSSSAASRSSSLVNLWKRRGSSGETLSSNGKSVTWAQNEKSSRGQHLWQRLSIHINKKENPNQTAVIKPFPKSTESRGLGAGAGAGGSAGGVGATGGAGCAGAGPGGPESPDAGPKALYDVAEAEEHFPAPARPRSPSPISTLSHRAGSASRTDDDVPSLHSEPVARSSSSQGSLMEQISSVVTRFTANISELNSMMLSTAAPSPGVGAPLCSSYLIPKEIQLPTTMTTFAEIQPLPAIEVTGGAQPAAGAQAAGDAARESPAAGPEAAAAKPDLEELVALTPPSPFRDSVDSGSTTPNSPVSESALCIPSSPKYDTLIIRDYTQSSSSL
- test protocol: Cell-based functional Ca2+ mobilization assay (FDSS), potentiation of glutamate EC20 response
- condition description: maximum % effect in concentration-response curve, as percent of response to maximally effective glutamate
readout type: Emax (%)

See these solved cases before continuing.
| compound | system tested | Emax [%] |
| --- | --- | --- |
| COc1nc(N2CCn3nc(COc4ccc(F)cc4)cc3C2=O)ncc1F | human mGluR5a receptor (Homo sapiens) | 72 |
| COc1ccccc1N1CCn2nc(COc3ccccc3)cc2C1=O | human mGluR5a receptor (Homo sapiens) | 65 |
| Cc1cc(N2CCn3nc(COc4ccccc4)cc3C2=O)ncc1F | human mGluR5a receptor (Homo sapiens) | 72 |
| Cc1ccccc1N1CCn2nc(COc3ccc(F)cc3)cc2C1=O | human mGluR5a receptor (Homo sapiens) | 63 |

(1) CNc1nc(N2CCn3nc(COc4ccccc4)cc3C2=O)ncc1F
(2) Cn1cnc(N2CCn3nc(COc4ccccc4)cc3C2=O)c1
Between 1 and 2 , which one shows the smaller Emax number? // caller expects the label of the chosen entry 2
(2: 23%, 1: 69%)
